- Test system: 596521-263-R-J1-PDC complex spheroids, viability % of control;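 also: spheroids exposed to drugs for 7 days before viability reading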
- Procedure summary: Anticancer human tumor 596521-263-R-J1-PDC patient-derived soft tissue sarcoma cell line growth inhibition [GQUAD]
- Condition description: second compound 10 µM; first compound 0.00316 µM; active compounds read low
Under this convention, Met denotes viability, T/C strictly below 60% and Not met denotes viability, T/C at or above 60%.

# example entries with known answers
Cc1[nH]c2ccccc2c1CCNCc1ccc(/C=C/C(=O)NO)cc1 + Cc1cnc(CNC(=O)c2c(=O)c3ccc(N4CCCN(C)CC4)nc3n3c2sc2ccccc23)cn1    Met
Cn1ncnc1[C@H]1c2n[nH]c(=O)c3cc(F)cc(c23)N[C@@H]1c1ccc(F)cc1 + Cc1[nH]c2ccc(F)cc2c1-c1nc2c3cccnc3c3ncccc3c2[nH]1    Not met
CCc1c2c(nc3ccc(O)cc13)-c1cc3c(c(=O)n1C2)COC(=O)[C@]3(O)CC + CN(C)c1ccc(Nc2c3ccc(NC(=O)CCN4CCCC4)cc3nc3cc(NC(=O)CCN4CCCC4)ccc23)cc1    Met
Cc1[nH]c2ccccc2c1CCNCc1ccc(/C=C/C(=O)NO)cc1 + Cc1[nH]c2ccc(F)cc2c1-c1nc2c3cccnc3c3ncccc3c2[nH]1    Not met
CC[C@@]1(O)C(=O)OCc2c1cc1n(c2=O)Cc2cc3c(CN(C)C)c(O)ccc3nc2-1 + Cc1cnc(CNC(=O)c2c(=O)c3ccc(N4CCCN(C)CC4)nc3n3c2sc2ccccc23)cn1    Met

State whether 60% exceeds viability, T/C recorded for CC[C@@]1(O)C(=O)OCc2c1cc1n(c2=O)Cc2cc3c(CN(C)C)c(O)ccc3nc2-1 + CN(C)c1ccc(Nc2c3ccc(NC(=O)CCN4CCCC4)cc3nc3cc(NC(=O)CCN4CCCC4)ccc23)cc1 .
Not met

Would you kindly verify if viability, T/C of Cn1ncnc1[C@H]1c2n[nH]c(=O)c3cc(F)cc(c23)N[C@@H]1c1ccc(F)cc1 + Cc1cnc(CNC(=O)c2c(=O)c3ccc(N4CCCN(C)CC4)nc3n3c2sc2ccccc23)cn1 is strictly less than 60%?
Met

Criterion: viability, T/C strictly below 60%. Is it met by CCc1c2c(nc3ccc(O)cc13)-c1cc3c(c(=O)n1C2)COC(=O)[C@]3(O)CC + Cc1cnc(CNC(=O)c2c(=O)c3ccc(N4CCCN(C)CC4)nc3n3c2sc2ccccc23)cn1 ?
Met
